System: PC-3
Assay: Antiproliferative activity against human PC-3 cells assessed as reduction in cell growth incubated for 72 hrs by MTT assay
Assay type: functional, cell-based
Settings: PC-3, 72 h
endpointName: pIC50
As a rule, pIC50 stands for the negative log10 of the concentration, concentration in M.

Sample COC(=O)[C@]12CC[C@@H](C)[C@H](C)[C@H]1C1=CC(=O)[C@@H]3[C@@]4(C)C(C=O)=C[C@@](C)(COS(C)(=O)=O)[C@@H]4CC[C@@]3(C)[C@]1(C)CC2 ; pIC50 observed: 6.38

###

Test system: HCT-116
Assay: Cytotoxicity against human HCT-116 cells assessed as reduction in cell growth incubated for 72 hrs by MTT assay
Format: functional, cell-based
Conditions: HCT-116, 72 h
endpointName: IC50 (nM)
Numbers only; they are read as nM.

Record summary for COC(=O)[C@@]1(C)[C@@H]2CC[C@]3(C)[C@H](CC=C4[C@@H]5[C@@H](C)[C@H](C)CC[C@]5(C(=O)Nc5ccccc5)CC[C@]43C)[C@@]2(C)C[C@@H](OC)[C@@H]1OC(C)=O : reported IC50 = 1080

From: ChEMBL document CHEMBL6134814
